# TESTED_TARGET: cCaSR (Felis catus, UniProt C7FF08)
# Sequence (C7FF08 1-1081): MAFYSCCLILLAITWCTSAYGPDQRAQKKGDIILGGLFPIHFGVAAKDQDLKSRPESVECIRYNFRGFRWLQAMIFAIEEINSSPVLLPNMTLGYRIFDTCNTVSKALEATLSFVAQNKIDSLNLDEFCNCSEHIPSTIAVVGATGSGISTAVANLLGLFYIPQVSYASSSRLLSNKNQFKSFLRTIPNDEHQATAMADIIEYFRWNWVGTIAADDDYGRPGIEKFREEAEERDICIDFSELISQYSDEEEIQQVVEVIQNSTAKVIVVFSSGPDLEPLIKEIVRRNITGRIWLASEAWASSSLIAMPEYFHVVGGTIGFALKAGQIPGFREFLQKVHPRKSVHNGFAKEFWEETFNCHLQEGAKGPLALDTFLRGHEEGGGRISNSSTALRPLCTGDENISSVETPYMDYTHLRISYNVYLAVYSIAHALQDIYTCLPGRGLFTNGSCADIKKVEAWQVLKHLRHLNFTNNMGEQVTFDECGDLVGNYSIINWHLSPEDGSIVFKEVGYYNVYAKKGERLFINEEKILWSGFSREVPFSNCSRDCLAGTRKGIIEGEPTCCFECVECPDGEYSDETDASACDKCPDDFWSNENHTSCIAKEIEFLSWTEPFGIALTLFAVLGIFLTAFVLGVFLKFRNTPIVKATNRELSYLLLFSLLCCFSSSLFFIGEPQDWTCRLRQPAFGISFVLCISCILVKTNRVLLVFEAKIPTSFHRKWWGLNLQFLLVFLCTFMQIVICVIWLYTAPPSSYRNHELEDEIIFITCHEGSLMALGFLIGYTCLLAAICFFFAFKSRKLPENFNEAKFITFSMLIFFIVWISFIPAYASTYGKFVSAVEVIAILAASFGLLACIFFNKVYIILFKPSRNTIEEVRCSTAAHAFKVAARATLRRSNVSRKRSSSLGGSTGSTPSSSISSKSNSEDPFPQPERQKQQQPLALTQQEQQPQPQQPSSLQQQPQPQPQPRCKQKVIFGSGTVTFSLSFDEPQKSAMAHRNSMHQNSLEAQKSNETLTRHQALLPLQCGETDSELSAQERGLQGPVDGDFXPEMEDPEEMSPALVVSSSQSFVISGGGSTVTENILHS
# EXPERIMENTAL_PROTOCOL: cCaSR PAM luminescence assay, double injection with 0.5 mM CaCl2, HEK293/T-REx/natClytin-cCaSR
# SETUP_CONDITIONS: Supplementary Table I, PAM assay, dash = no activity
ASSAY_READOUT: EC50 PAM (M)

{"COMPOUND": "NC(CCP(=O)(O)O)C(=O)O (stereo not shown)", "TESTED_TARGET": "cCaSR (Felis catus, UniProt C7FF08)", "ASSAY_READOUT": "EC50 PAM (M)", "ASSAY_RESULT": "-"}
{"COMPOUND": "O=C(O)c1cc2c(cn1)[nH]c1ccccc12 [9H-pyrido[3,4-b]indole-3-carboxylic acid]", "TESTED_TARGET": "cCaSR (Felis catus, UniProt C7FF08)", "ASSAY_READOUT": "EC50 PAM (M)", "ASSAY_RESULT": "-"}
{"COMPOUND": "COC(=O)CC[C@H](N)C(=O)O", "TESTED_TARGET": "cCaSR (Felis catus, UniProt C7FF08)", "ASSAY_READOUT": "EC50 PAM (M)", "ASSAY_RESULT": "-"}
{"COMPOUND": "CC(C)(Cc1ccc2ccccc2c1)NC[C@@H](O)COc1cccc(Cl)c1C#N [NPS 2143, reference compound]", "TESTED_TARGET": "cCaSR (Felis catus, UniProt C7FF08)", "ASSAY_READOUT": "EC50 PAM (M)", "ASSAY_RESULT": "-"}

###

Here's a batch of molecules along with measured agonist activity on cCaSR (in words) for cCaSR (Felis catus).

{"MOLECULE": "N[C@@H](CS(=O)(=O)O)C(=O)O [L-Cysteic acid monohydrate]", "ASSAY_READOUT": "agonist activity on cCaSR (in words)", "ASSAY_RESULT": "agonist activity"}
{"MOLECULE": "NCCCCNCCCN [Spermidine]", "ASSAY_READOUT": "agonist activity on cCaSR (in words)", "ASSAY_RESULT": "agonists"}
{"MOLECULE": "NCCCNCCCCNCCCN [Spermine]", "ASSAY_READOUT": "agonist activity on cCaSR (in words)", "ASSAY_RESULT": "agonists"}
{"MOLECULE": "C[Se]C[C@H](N)C(=O)O [Se-(Methyl)selenocysteine]", "ASSAY_READOUT": "agonist activity on cCaSR (in words)", "ASSAY_RESULT": "agonist activity"}

Query block: Find the recorded agonist activity on cCaSR (in words) belonging to N[C@@H](CCC(=O)O)C(=O)O [L-Glutamic acid] and report it.
Result block: strong agonist activity

Query block: Name the reported agonist activity on cCaSR (in words) value associated with the molecule COC(=O)C[C@H](N)C(=O)O
Result block: agonist activity

Query block: Fill blank: measured agonist activity on cCaSR (in words) of the molecule NC(=O)[C@@H](N)CCC(=O)O [L-Isoglutamine] is ____.
Result block: agonist activity

###

For each of the compounds below, state its pEC50.
# TESTED_TARGET: hCaSR (Homo sapiens, UniProt P41180)
# Construct: expressed in transfected cells; host or cells: HEK293/natClytin (transient, pcDNA6 as delivered by GeneArt)
# Sequence (P41180 20-1078): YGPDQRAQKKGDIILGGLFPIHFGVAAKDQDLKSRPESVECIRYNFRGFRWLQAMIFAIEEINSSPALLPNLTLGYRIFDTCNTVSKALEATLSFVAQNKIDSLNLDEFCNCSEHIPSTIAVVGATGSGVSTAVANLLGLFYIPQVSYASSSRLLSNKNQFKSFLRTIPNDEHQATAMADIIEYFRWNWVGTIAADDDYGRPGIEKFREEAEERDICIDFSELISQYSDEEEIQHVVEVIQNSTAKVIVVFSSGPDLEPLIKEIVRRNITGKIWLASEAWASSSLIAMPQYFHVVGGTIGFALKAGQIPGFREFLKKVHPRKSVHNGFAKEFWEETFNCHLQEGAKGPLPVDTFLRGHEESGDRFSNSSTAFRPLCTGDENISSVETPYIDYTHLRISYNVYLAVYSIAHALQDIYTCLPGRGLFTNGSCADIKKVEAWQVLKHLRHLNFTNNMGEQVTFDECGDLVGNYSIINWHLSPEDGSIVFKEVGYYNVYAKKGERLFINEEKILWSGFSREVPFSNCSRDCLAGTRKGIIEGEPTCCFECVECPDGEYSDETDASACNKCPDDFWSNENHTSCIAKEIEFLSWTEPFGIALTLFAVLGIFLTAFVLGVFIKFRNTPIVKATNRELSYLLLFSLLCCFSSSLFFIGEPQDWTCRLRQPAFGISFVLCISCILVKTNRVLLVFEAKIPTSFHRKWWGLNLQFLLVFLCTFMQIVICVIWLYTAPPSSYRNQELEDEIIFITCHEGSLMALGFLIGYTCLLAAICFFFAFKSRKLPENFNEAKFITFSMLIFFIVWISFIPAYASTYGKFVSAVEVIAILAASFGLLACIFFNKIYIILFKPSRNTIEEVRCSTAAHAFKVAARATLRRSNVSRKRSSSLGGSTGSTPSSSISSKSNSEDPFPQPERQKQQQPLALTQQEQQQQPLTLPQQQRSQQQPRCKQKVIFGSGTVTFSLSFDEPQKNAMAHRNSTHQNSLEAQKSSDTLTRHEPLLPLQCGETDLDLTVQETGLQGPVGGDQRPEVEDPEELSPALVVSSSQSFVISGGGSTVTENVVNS
# EXPERIMENTAL_PROTOCOL: hCaSR transiently expressed in HEK293/natClytin, agonist luminescence assay
# Format: cell-based
# SETUP_CONDITIONS: transiently expressed hCaSR; > 3 mM = maximal response not reached; read-out: hCaSR EC50
Formally, pEC50 is defined as -log10 of the concentration c, with c in mol/L.

Query block: Hi! What's the reported pEC50 for NC[C@H]1O[C@H](O[C@H]2[C@H](O)[C@@H](O[C@H]3O[C@H](CO)[C@@H](O)[C@H](N)[C@H]3O)[C@H](N)C[C@@H]2N)[C@H](N)C[C@@H]1O [Tobramycin, reference compound] on hCaSR (Homo sapiens, UniProt P41180)?
Result block: 3.80

Query block: API: value(readout= pEC50, system= hCaSR (Homo sapiens, UniProt P41180), query= [Ca+2].[Cl-].[Cl-] )
Result block: 3.10

Query block: Field: pEC50 (hCaSR (Homo sapiens, UniProt P41180)). Entry: [Cl-].[Cl-].[Mg+2]
Result block: 2.41

Query block: Query the reported pEC50 for hCaSR (Homo sapiens, UniProt P41180); item: CN[C@@H]1[C@@H](O)[C@@H](O[C@@H]2[C@@H](O)[C@H](O[C@H]3O[C@H]([C@@H](C)O)[C@@H](O)[C@H](O)[C@H]3N)[C@@H](N)C[C@H]2N)OC[C@]1(C)O [Geneticin, reference compound]
Result block: 2.44

Query block: Give hCaSR (Homo sapiens, UniProt P41180) pEC50 for N[C@@H](CC(=O)O)C(=O)O
Result block: 1.92

Query block: Hi! What's the reported pEC50 for CC(C)[C@H](NC(=O)CC[C@H](N)C(=O)O)C(=O)NCC(=O)O on hCaSR (Homo sapiens, UniProt P41180)?
Result block: 2.39
